# experimental_system: rat anti-2,4-dinitrophenyl IgG (IgG^DNP, clone LO-DNP-2)
# protocol_details: Monovalent dissociation constant of hapten for anti-2,4-DNP IgG, method not given
# Type: binding
# assay_setup: read-out: monovalent Kd (Kd^affinity) of hapten for IgG^DNP
pKd: −log10 of the molar value.
assay_readout: pKd

The value of pKd measured for the compound O=[N+]([O-])c1ccc(OC2O[C@H](CO)[C@@H](O)[C@H](O)[C@H]2O)cc1 (stereo partly shown) [compound 7, 4-nitrophenylglucose] turned out to be ~6.30
